# system: PXR ligand binding domain (LBD) (Homo sapiens)
# Sequence (O75469 146-433 limits assumed): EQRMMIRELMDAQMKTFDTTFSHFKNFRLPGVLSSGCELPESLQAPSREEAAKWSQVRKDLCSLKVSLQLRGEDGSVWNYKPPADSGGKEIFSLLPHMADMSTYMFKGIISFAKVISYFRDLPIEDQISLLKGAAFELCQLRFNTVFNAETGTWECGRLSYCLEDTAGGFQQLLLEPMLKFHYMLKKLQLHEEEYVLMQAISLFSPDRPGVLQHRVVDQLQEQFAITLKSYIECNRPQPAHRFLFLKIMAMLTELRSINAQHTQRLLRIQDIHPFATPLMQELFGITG
measure: Kd

Request: Entry under review: "Cc1cc(C)c(S(=O)(=O)Nc2ccc3c(c2)nc(CCCCCCCN)n3Cc2ccccc2)c(C)c1" . Reported Kd?
Response: 18.4 nM
